measured metric: melting point

Worked examples follow.
molecule: COc1ccnc(C(=O)N[C@H]2CCC[C@H](Cc3ccc(F)cc3F)[C@@H](OCc3ccccc3)[C@H](C)OC2=O)c1O [Compound F52]
measured metric: melting point
readout value: 68 to 72 °C
//
molecule: C[C@@H]1OC(=O)[C@@H](NC(=O)OC(C)(C)C)CCC[C@H](C)[C@H]1Oc1ccccc1 [Compound F224]
measured metric: melting point
readout value: 144 to 145 °C

In: Look up melting point for this molecule: Cc1ccc(C[C@H]2CCC[C@H](N(C(=O)OC(C)(C)C)C(=O)OC(C)(C)C)C(=O)O[C@@H](C)[C@@H]2OCc2ccccc2)cc1 [Compound F230]
Out: 164 to 166 °C
